Below is a list of entries, each paired with its recorded RP-LC retention time value.
method: gradient 5% acetonitrile 3 min, to 50% in 2 min, to 85% in 15 min, held 3 min, 100 µL/min
settings: column: Zorbax Extend-C18 2.1 x 50 mm; eluents: water / acetonitrile, 0.1% formic acid
assay metric: RP-LC retention time (s)

1. CC(=O)c1cccc(NC(=O)Cn2cncc(C)c2=O)c1    598
2. CCc1ccc(NC(=O)Cc2c(C)nn(-c3nc(-c4ccc(F)cc4)cs3)c2C)cc1    1240
3. O=C1COc2ccccc2N1Cc1nc(-c2cccc(F)c2)no1    990
4. O=C(NCCc1c[nH]c2ccccc12)C1CCCN1c1nnc(N2CCCC2=O)s1 (stereo not given)    690
5. O=C(NCC(=O)N1CCc2ccccc21)c1ccc(=O)[nH]c1    599
6. Cc1nc2c(ccc3nc(NC(=O)NC4CCCC4)sc32)s1    785
7. COc1ccc(-c2nnc(N3CCC(C(=O)N4CCOCC4)CC3)o2)cc1    664
8. Cc1ccn2c(Nc3ccc4c(c3)OCO4)c(-c3ccccc3)nc2c1    690
9. CCCN(CC1CCOC1)C(=O)Nc1ccccc1CC (stereo not given)    823
10. Cc1noc(C)c1CNC(=O)Cc1ccccc1F    696
